Reference source: PubChem BioAssay (NCATS)

- Test system: CP260
- Experiment summary: qHTS profiling for inhibitors of Plasmodium falciparum proliferation (AID 504749); note: nearly all actives have a fitted effect of over 60% in size
- Assay setup: P. falciparum in erythrocytes, SYBR Green DNA, 72 h; series mostly up to 28.7 µM
Records with an inconclusive call do not appear. Activity calls are given as the source filed them. Calls come from the whole dose curve; as a rule, active = well fitted inhibition curve with a large enough effect; inconclusive = small, poorly fitted or top-dose-only effect; inactive = flat fitted curve, though single readings scatter. Where a SMILES comes first, the peptide text is derived from it. [ ]: non-standard residue; d: D form. pGlu = O=C1CC[C@@H](C(=O)O)N1; Thz = O=C(O)[C@@H]1CSCN1
Possible outcomes: Yes = active, No = inactive

{"columns": ["Compound", "Discrete label"],
 "data": [
  ["C=CCN1C(=O)C(CC(C)C)NC1=S (stereo not given)", "No"],
  ["C=CC(N)CCC(=O)O (stereo not given)", "No"],
  ["CCCSc1ccc2nc(NC(=O)OC)[nH]c2c1", "No"],
  ["[O-][n+]1ccccc1SSc1cccc[n+]1[O-]", "Yes"],
  ["C[S+](CC[C@H](N)C(=O)O)C[C@H]1O[C@@H](n2cnc3c(N)ncnc32)[C@H](O)[C@@H]1O (stereo not given in full)", "No"],
  ["COc1ccc(-c2cc(=S)ss2)cc1", "No"],
  ["CN(C)c1ccc(C(=C2C=CC(=[N+](C)C)C=C2)c2ccccc2)cc1", "Yes"],
  ["CN1CCN(c2cc3c(nn2)Oc2ccccc2N3C)CC1", "No"],
  ["Cc1ccccc1CNc1ncnc2c1ncn2C1OC(CO)C(O)C1O (stereo not given)", "No"],
  ["CCCCCCCCCCCC(=O)[O][Sn]([CH2]CCC)([CH2]CCC)[O]C(=O)CCCCCCCCCCC", "Yes"],
  ["CCCCCCCCCCCCCCCCCC(=O)O", "No"],
  ["O=C(O)[C@H](CC(=O)N1C[C@H]2CCCC[C@H]2C1)Cc1ccccc1", "No"],
  ["O=C1CN(/N=C/c2ccc(-c3ccc([N+](=O)[O-])cc3)o2)C(=O)N1", "No"],
  ["C=CCCCCCCCCC(=O)O", "No"],
  ["O=C(/C=C/c1ccccc1)NCCO", "No"],
  ["Cc1ccc(O)c(-n2nc3ccccc3n2)c1", "No"],
  ["CN1[C@@H]2CC[C@H]1CC(OC(=O)C(CO)c1ccccc1)C2 (stereo not given in full)", "No"],
  ["C#C[C@]1(O)CC[C@H]2[C@@H]3CCc4cc(O)ccc4[C@H]3CC[C@@]21C", "No"],
  ["O=C(OCc1ccccc1)c1ccccc1", "Yes"],
  ["O=C(O)Cc1ccc(-c2ccccc2)cc1", "No"],
  ["CC(C(=O)O)c1ccc2c(c1)[nH]c1ccc(Cl)cc12 (stereo not given)", "No"],
  ["O=C(CCN1CCN(CCO)CC1)N1c2ccccc2Sc2ccc(C(F)(F)F)cc21", "Yes"],
  ["O=C1CC[C@@H](C(=O)N2CSC[C@H]2C(=O)O)N1 ([pGlu]-[Thz]-OH)", "No"],
  ["Cc1cc(O)c2ccccc2c1O", "No"],
  ["CCCOC(=O)c1ccc(O)cc1", "No"]
]}

----------
- Experiment summary: Cell Viability - LYMP2-019 (AID 973);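 note: cells exposed to compound for 24 h at 37 °C; nearly all actives have a fitted effect of over 55% in size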
- Assay setup: LYMP2-019 lymphoblastoid cell line viability; series mostly up to 92.2 µM
Records with an inconclusive call do not appear. Activity calls are given as the source filed them. The call rests on the fitted dose curve; in most records, active means well fitted cell-killing curve with a large enough effect; inconclusive means small, poorly fitted or top-dose-only effect; inactive means flat fitted curve, though single readings scatter.
Possible outcomes: active, inactive

{"columns": ["Compound string", "Discrete label"],
 "data": [
  ["COc1cc(/C=C/C(=O)CC(=O)/C=C/c2ccc(O)c(OC)c2)ccc1O", "active"],
  ["O=C(O)/C=C\\C(=O)O", "inactive"],
  ["CCCOC(=O)c1ccc(O)cc1", "inactive"],
  ["Nc1ccc(O)c(C(=O)O)c1", "inactive"],
  ["O=c1cc(-c2ccccc2)oc2ccccc12", "inactive"],
  ["c1ccc2sc(SSc3nc4ccccc4s3)nc2c1", "inactive"],
  ["S=c1[nH]c2ccccc2s1", "inactive"]
]}
